# measuredTarget: Ba/F3 ETV6-TRKB (Homo sapiens, UniProt Q16620)
# Sequence (Q16620 32-822 limits assumed, change not shown): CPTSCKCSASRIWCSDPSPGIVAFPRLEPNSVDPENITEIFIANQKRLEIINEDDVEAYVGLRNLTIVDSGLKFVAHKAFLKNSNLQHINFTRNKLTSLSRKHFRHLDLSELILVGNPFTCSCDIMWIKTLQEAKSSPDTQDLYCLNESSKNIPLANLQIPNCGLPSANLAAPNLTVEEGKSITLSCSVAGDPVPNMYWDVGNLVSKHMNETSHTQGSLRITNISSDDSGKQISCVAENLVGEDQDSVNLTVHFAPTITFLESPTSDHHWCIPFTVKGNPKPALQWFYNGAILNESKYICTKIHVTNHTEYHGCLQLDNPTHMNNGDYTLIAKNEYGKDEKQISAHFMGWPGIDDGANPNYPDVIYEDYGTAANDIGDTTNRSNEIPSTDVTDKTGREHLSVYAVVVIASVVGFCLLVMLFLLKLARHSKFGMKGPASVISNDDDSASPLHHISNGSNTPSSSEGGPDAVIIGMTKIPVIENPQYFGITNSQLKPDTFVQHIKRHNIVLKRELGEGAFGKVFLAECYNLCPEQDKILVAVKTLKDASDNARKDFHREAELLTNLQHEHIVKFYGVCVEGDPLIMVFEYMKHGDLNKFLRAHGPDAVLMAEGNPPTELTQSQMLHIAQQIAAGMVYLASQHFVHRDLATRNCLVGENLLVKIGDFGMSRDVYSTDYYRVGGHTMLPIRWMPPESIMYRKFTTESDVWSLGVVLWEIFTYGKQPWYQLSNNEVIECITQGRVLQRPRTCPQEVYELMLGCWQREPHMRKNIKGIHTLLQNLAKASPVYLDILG
# protocol: Ba/F3 cell proliferation assay, ETV6-TRKB
# Assay type: cell-based
# testContext: read-out: ETV6-TRKB IC50; Ba/F3 stable cells, 72 hours, CellTiter-Glo
pIC50: −log10 of the molar value.
pIC50 reference

compound: C[C@H]1Oc2cc(cnc2N)-c2c(CC3CC3)nn(C(=O)N(C)C)c2Cc2cccnc2-c2ccc(F)cc21 [Example 20]
pIC50: 6.30 to 7.30

Field pIC50 (Ba/F3 ETV6-TRKB (Homo sapiens, UniProt Q16620)), entry C[C@H]1Oc2cc(cnc2N)-c2c(C#N)nn(C(=O)N(C)C)c2Cc2cccnc2-c2ccc(F)cc21 [Example 27] : 6.30 to 7.30
